# Protocol Details: Sensitivity of photosensitive layer with 3,3',4,4'-tetrakis(tert-butyldioxycarbonyl)benzophenone (Example 11)
# Test Parameters: 630 nm
Test Readout: Sensitivity

Molecule	Recorded Value
CCCCCN1C(=CC2=C([O-])C(=CC3=[N+](CCCCC)c4ccc5ccccc5c4C3(C)C)C2=O)C(C)(C)c2c1ccc1ccccc21	0.099 mJ/cm^2
CC(C)N1C(=CC2=C([O-])C(=CC3=[N+](C(C)C)c4ccc5ccccc5c4C3(C)C)C2=O)C(C)(C)c2c1ccc1ccccc21	0.083 mJ/cm^2
CC(C)CN1C(=CC2=C([O-])C(=CC3=[N+](CC(C)C)c4ccc5ccccc5c4C3(C)C)C2=O)C(C)(C)c2c1ccc1ccccc21	0.20 mJ/cm^2
CN1C(=CC2=C([O-])C(=CC3=[N+](C)c4ccc5ccccc5c4C3(C)C)C2=O)C(C)(C)c2c1ccc1ccccc21 [A, reference compound]	0.43 mJ/cm^2
CCCCCCN1C(=CC2=C([O-])C(=CC3=[N+](CCCCCC)c4ccc5ccccc5c4C3(C)C)C2=O)C(C)(C)c2c1ccc1ccccc21	0.17 mJ/cm^2
CCCCN1C(=CC2=C([O-])C(=CC3=[N+](CCCC)c4ccc5ccccc5c4C3(C)C)C2=O)C(C)(C)c2c1ccc1ccccc21	0.20 mJ/cm^2

Data provenance: patent US5681685A
